Below, each entry is listed with its recorded melting temperature.
System: HeLa Kyoto;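 further: HeLa Kyoto cells synchronized by double thymidine or nocodazole block, proteins quantified by TMT10plex mass spectrometry, three independent biological replicates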
procedure details: melting temperature (median over replicates), in situ; higher = more thermally stable
run parameters: cell cycle stage: mitosis
Express the result in °C but write the number alone.

Some solved cases for reference:
sequence code | melting temperature [°C]
MSPRRTLPRPLSLCLSLCLCLCLAAALGSAQSGSCRDKKNCKVVFSQQELRKRLTPLQYHVTQEKGTESAFEGEYTHHKDPGIYKCVVCGTPLFKSETKFDSGSGWPSFHDVINSEAITFTDDFSYGMHRVETSCSQCGAHLGHIFDDGPRPTGKRYCINSAALSFTPADSSGTAEGGSGVASPAQADKAEL [MSRB3] | 53.6
MAEYLASIFGTEKDKVNCSFYFKIGACRHGDRCSRLHNKPTFSQTIALLNIYRNPQNSSQSADGLRCAVSDVEMQEHYDEFFEEVFTEMEEKYGEVEEMNVCDNLGDHLVGNVYVKFRREEDAEKAVIDLNNRWFNGQPIHAELSPVTDFREACCRQYEMGECTRGGFCNFMHLKPISRELRRELYGRRRKKHRSRSRSRERRSRSRDRGRGGGGGGGGGGGGRERDRRRSRDRERSGRF [U2AF1] | 48.2
MALLSTVRGATWGRLVTRHFSHAARHGERPGGEELSRLLLDDLVPTSRLELLFGMTPCLLALQAARRSVARLLLQAGKAGLQGKRAELLRMAEARDIPVLRPRRQKLDTMCRYQVHQGVCMEVSPLRPRPWREAGEASPGDDPQQLWLVLDGIQDPRNFGAVLRSAHFLGVDKVITSRRNSCPLTPVVSKSSAGAMEVMDVFSTDDLTGFLQTKAQQGWLVAGTVGCPSTEDPQSSEIPIMSCLEFLWERPTLLVLGNEGSGLSQEVQASCQLLLTILPRRQLPPGLESLNVSVAAGILLHSICSQRKGFPTEGERRQLLQDPQEPSARSEGLSMAQHPGLSSGPEKERQNEG [MRM1] | 51.7
MPVWGGGNKCGACGRTVYHAEEVQCDGRSFHRCCFLCMVCRKNLDSTTVAIHDEEIYCKSCYGKKYGPKGYGYGQGAGTLNMDRGERLGIKPESVQPHRPTTNPNTSKFAQKYGGAEKCSRCGDSVYAAEKIIGAGKPWHKNCFRCAKCGKSLESTTLTEKEGEIYCKGCYAKNFGPKGFGYGQGAGALVHAQ [CSRP2] | 54.6

Data point: MPSKSLVMEYLAHPSTLGLAVGVACGMCLGWSLRVCFGMLPKSKTSKTHTDTESEASILGDSGEYKMILVVRNDLKMGKGKVAAQCSHAAVSAYKQIQRRNPEMLKQWEYCGQPKVVVKAPDEETLIALLAHAKMLGLTVSLIQDAGRTQIAPGSQTVLGIGPGPADLIDKVTGHLKLY [PTRH2] ; melting temperature = 52.6

Data point: MESSRGRPGPETDLLAVAEHQALVFGGGPGRTSSEPPAGLRVSGEEETENVGGANRHPRTSPKTSSCGVVHRPEREALENEPGPQGTLSGAGSRRGAPGAEHEPSLSSRHKNPAPPEGKPSSGRDCRRGGPGGGMDVEQQEEEDNDEEAAAGSRAGRSFSSRLQDSRSLDGLSEACGGAGSSGSAESGAGGGRRATISSPLELEGTVSRHGDLTHFVANNLQLKIRLSGAPPPPPSAPARPCPAPAPTPTPAIPPIDPEVLRDLERLSRELGGRVDRLLRGLGGAVQELTALSVGCIQTYRDAVDSLGEAVDMSIKGMYTLLARCEELERALQPVQGLARQVRDIRRTLEVLEALCK [C17ORF59] ; melting temperature = 53.8
